B1: KCNG1 (parent)
chain: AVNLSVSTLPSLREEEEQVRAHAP

variants of: B1; test: protein stability index of a GFP-peptide fusion (GPS, HEK-293T) (PSI 1-6); higher = more stable; details: c terminus: a fixed tail appended;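 note: lentivirally expressed fusions sorted by FACS into six bins by GFP to DsRed ratio, PSI derived from sequencing read proportions per bin multiplied by bin number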
Quick rule: protein stability index of at least 5 means met, below that means not met.

Record excerpt, results attached:
CONSTRUCT SEQUENCE	CLASS
AVNLSVSTLPSLREEEEQVCAHAP [R20C]	not met
AVNLSVSTLPSLRFEEEQVRAHAP [E14F]	not met
AVMLSVSTLPSLREEEEQVRAHAP [N3M]	not met
AVNLSVGTLPSLREEEEQVRAHAP [S7G]	met
AVNLSVSTLPILREEEEQVRAHAP [S11I]	not met
AVNLSVSTLPSLREEEDQVRAHAP [E17D]	not met

Q: Test whether the variant AVNLSVSTLPSLREEEEQVRWHAP [A21W] records protein stability index of 5 or higher.
Result: not met

Q: Test whether the variant AVNLSVSTLPSLREEEEGVRAHAP [Q18G] records protein stability index of 5 or higher.
Result: met

Q: Test whether the variant AVNLSVMTLPSLREEEEQVRAHAP [S7M] records protein stability index of 5 or higher.
Result: not met

Reference source: the supplement of paper PMC10567573
